- ASSAY EXPLANATION: label from the status in PepcDB records
MEASURED ENDPOINT: protein production

{"INPUT SEQUENCE": "MEEPKWLEGLLRTNFFSICPRHRETPRNECNMFCLSCQNAAFCFYCRSSFHIDHPVLQIRRSSYHDVVRVSEIENALDIRGVQTYVINSARVLFLNERPQPKNSSHEPFLIPFASVPWVARFVFLHLFSMQNSFL", "OBS VALUE": "not failed"}
{"INPUT SEQUENCE": "MNVLRRFHAWRNQAPLWWWVGLRMSALAVVTMMVIAFGMWCYFNLRYSLILSNVPAEPRAEISQLIEQPRANQARLWELFQRYYDIENFLPGLANPDWWMLGAMMTISVPVILFCGLLASRPLSRQFSQVAFAAHRVSDGDFGARAQVVRGAPDELTALADDFNTMSGRLQQYERELRDSSAMLAHELRTPLNAAMGRVQGMLDDVFPREPEQLRLVHRQLEQINRLIGDLHLVSLARAGQLVLEPESVELRELVAERIEWAGPALREAQMTIHYPTHPALRLHADRHRLGQVLSILIDNALRYAAAGKLLEIEVRRDGTGVQLTVGDRGPGVAPAQLPHLLDRFWRADSSRARHSGGSGLGLAIASAICQAHDGQLVVSNRPGGGLLASVQLPLGR", "OBS VALUE": "failed"}
{"INPUT SEQUENCE": "MSRQAEDLMVRTLSDASSLFGKERYKKALEKLDKAEKLAEKTKRTDILCRVLLQKGAVMNSMGKPDEGQDLYDKALDIYRTSNLNEQESSVLKHTLSNTFSELAKHFKMVDSIENAEKCYLNEIKVYEILLEKDPEDEDSNLEIARVFKAIGDLYEYFKPEKMDPETERQYYEKILDIREKAFELLPDSETYIYDLAHALGKLVDYYIIRQDYKSAIQFQERVVEVMEELIDLLANWKDLKAKSNAYDKLGSLYAEIGEEELAQEQYSKALEYYGMIFDDELWPLSVKAMLASELMERGKTLLLLKKYESAKESMDVALDFLEGVDKEEMEDSTEESLDLASVILGEGYEEESEDSGYLAELAGIFREYAKTLSDLNRNEEAEEFTAKSEKILRKLA", "OBS VALUE": "failed"}
{"INPUT SEQUENCE": "TAYIIVGLTPKDAEKLQQYGARVASTLAKYSGEVLVKGSVEQLHGKFEHKAQVILEFPSREDAYNWYHSEEYQALISTRDLGMDSQFQLIG", "OBS VALUE": "not failed"}

---

- ASSAY EXPLANATION: label from the status in PepcDB records

{"INPUT SEQUENCE": "MNIKEYLQQHPQWKKRIHGFIMHPVKTRPYWWIRVWQPFYIKKGRGSVIYSSVRKDLPPFHLFQMGKYSVVEDFSCLNNAVGDIVIGDYCRIGLGNTVIGPIRIDNGVNISQNVVLIGLDHNYQDITQGIIEQGITTSPIHIGEHTIIGANVIVLPGITIGKHCFIGAGCVVTQNIPDYCVTVGNPARIIKRYNPQSQTWEKI", "protein production": "failed"}
{"INPUT SEQUENCE": "MITKQDTIYEWIQNGQLEDALKALFQNIEEEPNTIENYINAGIVLADINEIEKAERFFQRAITIDDKNGAVYYNLANLYYDQGKYRDAIKLYQLASKYNMDKIDTNYMIGMSFNQLDAPTESLPYFMTAAELDKNQDAEVQFQYGLALCHLEMFNQAINQLKIVLDIDSKHVDALYNLGLATYMDTEDLDLAMSYFDKAISIDPNHLLSQHAKKTFEAIKNEEE", "protein production": "failed"}
{"INPUT SEQUENCE": "MSKFDGYFLRQLLVLCGFFAFVLVGVFWISKAVSLFDRLISSGQTAMVALEFTALTLPTLVRTVMPMAAFCATVYVTNRLNRESEMTVMLATGSSPFRLARPVILFGLVCAAMLATITLYLRPAAMLRLEARQAEVAGDMTAQLLNDGQFMHPVKGVTVYIGKIDRDGTLNDVYLSDRRAPERVVTYTSSKAFLARSGEQIALVMVEGTALQMETGRRTLSTTVFRDFSYDISALAKRDIERRQDIRGMPTLALATAFDGEGLAETYSRGEISEELQERLSWIGVSVAVTLIGFSTLMLGTFSRFGLWPQLIAAFAGLIALEGMRSTATAFVGSHPGLWWVQHAPALGGIALSILFLKLAGRPLRLRRYPDTGSV", "protein production": "failed"}

---

- ASSAY EXPLANATION: label from the status in PepcDB records

{"INPUT SEQUENCE": "MVNQPLVSIIIPAYRAENTIAFTVRSVLAQTYDHWQVAIGVDDQVDYLQLLAEQGINDPRLKQVFTGGIGSGEAIARNKAVSICDGDILANLDADDAFASDRLEKLVPLAEKYGVAIDNTGVYNSELVLYKQPFPQRQALNFATAADILSPRIPFFPVFQRQLLGDGWTKVPFAADVLFNLELLSRTEKVAIHPEPLYRYYKRDNSITQSANAFETAEKAYLTILSLLDEGALTLTDAIRQAARQEFSENLALNKVFRRYMEEGRCQNLEQFLDMTNNGQKIEFVSNLNLEHHHHHH", "protein production": "not failed"}
{"INPUT SEQUENCE": "MSKLAQIVQKLKKQGIEAAVLSDPVSINYLTGFYSDPHERLMFLFLFADQEPLLFLPELDALRAKSILDISVTGYLDFENPLEKIKTLLPKTNYSKIALEFDNLNVTKFKGLETIFSGQFTNLTPLINRMR", "protein production": "not failed"}

---

- ASSAY EXPLANATION: label from the status in PepcDB records
MEASURED ENDPOINT: protein production

Some solved cases for reference:
{"INPUT SEQUENCE": "MSQRTSEENRYEQLHRFAAKIHSTMQIDDVLEEIICTLQNVYPAFTYHLLLSHDNHVCGNLPIKTLALDESEGQPAALRAFLTGQVQCEETAAPPRSVLYAPIKGVQAVYGVIQIIAPYAAPFPKREINFISLLAGTAGRALENAKLYEQSRRLEHHHHHH", "protein production": "not failed"}
{"INPUT SEQUENCE": "MISIVIPLYNQVAYTQLCVQSLRRAGLNGVDVLLIDNGSTDGTAEYLKSCSDLRVIRNRENLGCAGAWNQGVRETTSEWVMILNNDVVVSPGWLDGLLEAAGKEGLDVVSPAIREGEYNYDIEGYSQEFVGRMGDVVRRGVADGICFMVRRRVFEVVGLFDENFRIGQFEDADFFRRARNAGFRLGTTGRSFIHHFGSVTQDAIRKNRPERPYVAENRAYFREKWQLTRGRRLIERWRRKLREFAWQKCERMFHGHTLKEKWLGGRLRYYLEHHHHHH", "protein production": "failed"}
{"INPUT SEQUENCE": "GEKLLNAASTRGRLCVGIDPHESLLTSWGLPVNVDGLAEFSRACVEAFADTVALVKPQVAFYERFGSAGFAILEETIQTLRERGCLVVSDAKRGDIGSTMAGYASAWLDPASPLSSDAVTVSPYLGFHSLDPVFELAEQHGRGVFVLAATSNPEARELQDQQNADGVSISQQIVDQAAALNAPYMAQGKAGNIGVVIGATLSKPPRLSTLGGAILMPGVGAQGGTASDVDEIAGDMAHLAFPNVSRSILATGPDIAEMKNSVAKN", "protein production": "failed"}
{"INPUT SEQUENCE": "MIKVNVMYPYTEGARFDHAYYCDRHMPMVKARLGSACAYYTVEKGLAGSASGAPPAFVAMCAFICDSAENFYAAMYYHGAEILGDIANYTDIAPVLQISEVVVERSDR", "protein production": "not failed"}
{"INPUT SEQUENCE": "MTKTWEQLSAIQPIGVKMLMNSIAKERISHAYLLEGEKGTGKFATAIQMAKSFLCSQRNRVEPCHVCTNCKRIDSGNHPNLHIVKPDGLSIKKQQIHDLQEEFSKTGLEANKKVYIIEHADRMTANAANALLKFLEEPSSDTTAILLTEQSHQILNTILSRCQVVTFRPLPTESLIRRLQDEGITVSLSTLAAQLTNSFDEALTLCNDEWFAQARALVIKLCEALEKDKASIFFVQEKWGKHFGEKEQLQQGLDMLLLIYKDLLYVQLGEEDRLVFREQKEMFESFSYAQKRIVSALFNILEAKNRINANVNAQLVFEQLVLRLQEG", "protein production": "failed"}
{"INPUT SEQUENCE": "MLKGKVALVTGASRGIGRAIAKRLANDGALVAIHYGNRKEEAEETVYEIQSNGGSAFSIGANLESLHGVEALYSSLDNELQNRTGSTKFDILINNAGIGPGAFIEETTEQFFDRMVSVNAKAPFFIIQQALSRLRDNSRIINISSAATRISLPDFIAYSMTKGAINTMTFTLAKQLGARGITVNAILPGFVKTDMNAELLSDPMMKQYATTISAFNRLGEVEDIADTAAFLASPDSRWVTGQLIDVSGGSCL", "protein production": "not failed"}
{"INPUT SEQUENCE": "MNPIKPPFTLNQYFAAWFVHVFTASAACIGVFSLYKIYQHDYVFALWLMAITVFIDAVDGSLARLVHVKSVLPKIDGALLDNIVDYLNYVITPCFFLLVKPGMLPADYVVPITAAITITSAYQFCQDDAKTPDHFFKGFPCYWNITVFYMYIFNTSMIVNTVLLSLFCVLIFIPVKYVYPSRLDYLTESRVLKILMHCCSALYGISSFCLLVNYPETNKLWVSLSLGYVGMYLFLSFYRTYYPMFKAKITANNKD", "protein production": "failed"}
{"INPUT SEQUENCE": "PGAAPGLFALESAIDEMALASGMDPLAFRKLNLSDKDQSVGLPWSSNHLPEAIDKAAERFGWQARKAAVGSMREGDEIIGYGMGACNWEAHQVPTDARVVLRSDGTALAQCGLQDIGTGTYTIVAQTVSELTGIPIERVEVELGSSSFPPGPVSGGSWVTASVMPAIAGATREALQKLRQYAISKDAVFAGQDPESIKVENGQLVMGEQRASFVDVLKGQRLSRAEGNFQSGMPEAGKYSFRSFGVHFVEVRWDPGISSLRVSRVVSAIDVGKVINPLAARNQVEGAIVMGIGMALFEAGEYDPRSGMPVNNNYAEYVVPVHADQPDIDVMLLDYPDYNLGEFGARGIGEIGVTGLAAAVANAVYHATGKRVRSLPITKEKLMAGL", "protein production": "failed"}
{"INPUT SEQUENCE": "MQLEHILRSYARYAPVYDHTFGWLLNFRGRSLAAHLTNRRPGRILEVGVGTGISLPFYRKEHQVHGIDISPHMLERARRRVHSKNLDHVVRLEIMDAREMAFPDDYFDAVVAAYVMSVVPEPQRVLREIERVCKAGGDVIIVNHFAADKKGTRRHFEALLSPLSHKLGWRPDMPIDEILAHTSLHEVRRQTLPPMGLFTLLHLKKASPDFADPARP", "protein production": "failed"}
{"INPUT SEQUENCE": "MLAERGANITGLDISGPMLQQGREKAQATGVDDRVEFMRGDAARLPFPDDHFDTVFAMRFFHLADTPAAFLAEMRRVSKEQVFFDTFNRFSTRSIYNWALPMGSRLYSRWEIDRLLDGAGLELTDANHDWLLPYGFYRKIPNELAASFRSLDTALGGTPLGEKLASVSYWNTHVLEHHHHHH", "protein production": "failed"}

Recorded result, `MEKNFILSVGMSVMFLFISSIKTVQAQQLGIGVKTELNGKVRFCNYDEAYFMPDTNTRIKVTGLEIAYDSSLNYYDIFVNVKGDKVNLHIKYSNGGEGAYIYKGIDRISKMDVVVTTKKKLSLYANNYGVNSYKEVESSVGIIIVFPKTYMISSIVPIKNKVETVNELSTQLRKGVITDSDGYTNIRKSNSVNSEIIGKIVDREVFTYWETNDNWYIVQTAKGIKGYVHKSRIKPVEERNEQKIRYYKVKNGDKIQDIAEKLGVSIDTICKLNRVKITTVLREGQALRISR` , protein production: failed

Field protein production (entry `MATPTEHEDLSEQEVTEDEFKTPKIRETPEDIKLEAIVNTIAFHPKQDILAAGDIDGDIYLFSYSCTEGENKELWSSGHHLKSCRKVLFSSDGQKLFSVSKDKAIHIMDVEAGKLETRIPKAHKVPINAMLLIDENIFATGDDEGTLKVWDMRKGTSFMDLKHHEDYISDITIDQAKRTLLTSSGDGTLGVFNIKRRRFELLSEIQNGDLTSVSIMKRGRKVVCGSGEGTIYIFNWNGFGATSDRFAVQAESVDCIVPITDSILCAASTDGVIRAINILPNRVVGSIGQHVGEAIEEIARCRDTHFLASCAHDELIKFWDISSLPDEKVNDYRRRKKKDRRLKALSNKAFDTGQNFFAGLLDTTEENGKEGENDEDDDDEDSDSGSD` ) reads not failed
